The origin of these recorded values is the supplement of paper PMC10981050.

Test system: MOLM14
Experiment notes: cell viability relative to vehicle control; higher = less cytotoxic;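 also: after 48 h exposure read by CellTiter-Glo luminescence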
Run parameters: 10 µM; SRSF2 genotype: SRSF2 wt/wt
Structures can show the parent of a compound that is named as a salt.
Observable: cell viability (%)
// return numeric value only (unit: %, not printed)

Reference set (3 entries):
>  <Compound>
CC(=O)OCOC(=O)CN(CC(=O)OCOC(C)=O)c1ccccc1OCCOc1ccccc1N(CC(=O)OCOC(C)=O)CC(=O)OCOC(C)=O

>  <Unit spec>
%

>  <cell viability>
0.25

$$$$
>  <Compound>
CN(C)CCC=C1c2ccccc2C(C)(C)c2ccccc21 [Melitracen hydrochloride]

>  <Unit spec>
%

>  <cell viability>
77.6

$$$$
>  <Compound>
Cc1ccc(S(=O)(=O)Nc2cc(-c3ccc(C#N)s3)ccc2C)cc1

>  <Unit spec>
%

>  <cell viability>
1.53

$$$$

Any idea what cell viability came out for COC(=O)c1ccccc1O [Methyl salicylate] on MOLM14?
104

Any idea what cell viability came out for O=c1c(-c2ccc(O)cc2)coc2cc(O[C@@H]3O[C@H](CO)[C@@H](O)[C@H](O)[C@H]3O)cc(O)c12 [Genistin (Genistoside)] on MOLM14?
99.7

Any idea what cell viability came out for C=C[C@@](C)(/C=C/c1ccc(O)cc1)CCC=C(C)C [Bakuchiol] on MOLM14?
90.1

Any idea what cell viability came out for NC(=O)[C@H](CCCN=C(N)CCl)NC(=O)c1ccccc1 [Cl-amidine] on MOLM14?
99

Any idea what cell viability came out for O=Cc1ccc(O[C@@H]2O[C@H](CO)[C@@H](O)[C@@H](O)[C@H]2O)cc1 [Helicide] on MOLM14?
104

---

Test system: MOLM14
Experiment notes: cell viability relative to vehicle control; higher = less cytotoxic
Run parameters: 10 µM; SRSF2 genotype: SRSF2 P95H/wt
The following compounds are listed with their measured cell viability values.
// return numeric value only (unit: %, not printed)

Reference set (3 entries):
>  <Compound>
CC[C@@H]([C@H](C)O)n1ncn(-c2ccc(N3CCN(c4ccc(OC[C@@H]5CO[C@@](Cn6cncn6)(c6ccc(F)cc6F)C5)cc4)CC3)cc2)c1=O [Posaconazole]

>  <Quantitative readout>
62.2

$$$$
>  <Compound>
CCS(=O)(=O)Nc1ccc(Oc2ccc(F)cc2F)c(-c2cn(C)c(=O)c3[nH]ccc23)c1 [ABBV-075 (Mivebresib)]

>  <Quantitative readout>
1.9

$$$$
>  <Compound>
CC(c1cc2ccccc2s1)N(O)C(N)=O (centres undefined) [Zileuton]

>  <Quantitative readout>
98.7

$$$$

Next:
Any idea what cell viability came out for O=C(O)C=CCCCCCCCO [Royal jelly acid] on MOLM14?
98.5

---

Tested on: OCI-AML2
Experiment notes: cell viability relative to vehicle control; higher = less cytotoxic
Run parameters: 10 µM; SRSF2 genotype: wt/wt
The following compounds are listed with their measured cell viability values.
// return numeric value only (unit: %, not printed)

Reference set (7 entries):
>  <Compound>
C[C@H]1[C@H](C)CC[C@]2(C(=O)O)CC[C@]3(C)C(=CC[C@@H]4[C@@]5(C)C[C@@H](O)[C@H](O)C(C)(C)[C@@H]5CC[C@]43C)[C@H]12

>  <cell viability [%]>
99.7

$$$$
>  <Compound>
COC(=O)[C@H](Cc1ccccc1)NC(=O)[C@@H](N)CC(=O)O

>  <cell viability [%]>
92.1

$$$$
>  <Compound>
Cc1cn([C@H]2C=C[C@@H](CO)O2)c(=O)[nH]c1=O

>  <cell viability [%]>
110

$$$$
>  <Compound>
C[C@H](NC(=O)CCc1nc2ccccc2c(=O)[nH]1)c1ccccc1

>  <cell viability [%]>
121

$$$$
>  <Compound>
CC(=O)c1cc(O)ccc1O [2',5'-Dihydroxyacetophenone]

>  <cell viability [%]>
101

$$$$
>  <Compound>
C/C=C(/C)C(=O)OC(=O)/C(C)=C\C [Angelic anhydride]

>  <cell viability [%]>
100

$$$$
>  <Compound>
CC(C)c1nc(CN(C)C(=O)N[C@H](C(=O)N[C@@H](Cc2ccccc2)C[C@H](O)[C@H](Cc2ccccc2)NC(=O)OCc2cncs2)C(C)C)cs1

>  <cell viability [%]>
89.3

$$$$

Could you share which cell viability value was measured for `COc1ccc2c(Oc3ccc(NC(=O)c4c(C)n(CC(C)(C)O)n(-c5ccccc5)c4=O)nc3)ccnc2c1` ?
35.9
